# MEASUREMENT_TARGET: CDK1/Cyclin B1 (Homo sapiens, UniProt P06493)
# Sequence (P06493 whole entry): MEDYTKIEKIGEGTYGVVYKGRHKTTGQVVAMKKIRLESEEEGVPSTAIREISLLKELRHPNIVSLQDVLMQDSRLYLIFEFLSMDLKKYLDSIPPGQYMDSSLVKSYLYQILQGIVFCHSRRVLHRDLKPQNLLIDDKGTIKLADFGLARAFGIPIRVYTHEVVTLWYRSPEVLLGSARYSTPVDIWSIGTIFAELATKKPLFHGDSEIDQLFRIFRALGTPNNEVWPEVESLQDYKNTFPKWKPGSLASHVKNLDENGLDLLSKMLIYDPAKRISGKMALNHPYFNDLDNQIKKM
# Sequence (P14635 whole entry partner): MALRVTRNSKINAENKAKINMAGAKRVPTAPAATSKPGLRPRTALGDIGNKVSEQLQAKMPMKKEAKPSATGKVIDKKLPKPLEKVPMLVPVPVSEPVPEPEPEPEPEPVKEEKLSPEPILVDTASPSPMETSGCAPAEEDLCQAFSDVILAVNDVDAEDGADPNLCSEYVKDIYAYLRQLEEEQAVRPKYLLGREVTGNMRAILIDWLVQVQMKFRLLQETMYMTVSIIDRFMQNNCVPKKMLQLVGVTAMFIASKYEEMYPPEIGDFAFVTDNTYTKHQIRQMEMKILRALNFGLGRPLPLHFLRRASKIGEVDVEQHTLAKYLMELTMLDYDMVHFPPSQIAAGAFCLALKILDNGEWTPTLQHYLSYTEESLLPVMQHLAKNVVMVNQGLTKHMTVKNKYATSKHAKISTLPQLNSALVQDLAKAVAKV
# ASSAY_OVERVIEW: CDK1/Cyclin B1 Biochemical Assay (TR-FRET), 0.015 mM ATP
# CONDITIONS_USED: 0.15 μM Rb (Ser780)-biotin substrate, pH7.0, 60 min preincubation, 120 min reaction, room temperature
ATTRIBUTE_MEASURED: IC50 (nM)

Worked cases, IC50 given:
COMPOUND: CC(C)NC(=O)O[C@H]1CC[C@@H](c2cc(Nc3ccc4c(c3)CS(=O)(=O)N4C(C)C3COC3)n[nH]2)C1 (relative stereo)
IC50 (nM): 262
--
COMPOUND: CC(C)NC(=O)O[C@H]1CC[C@@H](c2cc(Nc3ccc4c(c3F)CN(C3CC3)S4(=O)=O)n[nH]2)C1 (single isomer, unassigned) [Example 116b]
IC50 (nM): 189
--
COMPOUND: CC(C)NC(=O)O[C@H]1CC[C@@H](c2cc(Nc3ccc4c(c3Cl)CNS4(=O)=O)n[nH]2)C1 (single isomer, unassigned) [Example 38a]
IC50 (nM): 1500
--
COMPOUND: O=C(NC1CCC1)O[C@H]1CC[C@@H](c2cc(Nc3ccc4c(c3F)CS(=O)(=O)N4)n[nH]2)C1 (single isomer, unassigned) [Example 399b]
IC50 (nM): 90
--
COMPOUND: CC(C)NC(=O)O[C@H]1CC[C@@H](c2cc(Nc3ccc4c(c3)CCS(=O)(=O)N4C)n[nH]2)C1 (relative stereo)
IC50 (nM): 30
--
COMPOUND: CCCNC(=O)O[C@H]1CC[C@@H](c2cc(Nc3ccc4c(c3F)CN(C)S4(=O)=O)n[nH]2)C1 (single isomer, unassigned) [Example 122a]
IC50 (nM): 455
--
COMPOUND: CN1c2ccc(Nc3cc([C@@H]4CC[C@H](OC(=O)NC5(CO)CCC5)C4)[nH]n3)cc2CS1(=O)=O (relative stereo)
IC50 (nM): 28
--
COMPOUND: CC(C)NC(=O)O[C@H]1CC[C@@H](c2cc(Nc3ccc4c(c3)CS(=O)(=O)N4CC(F)(F)F)n[nH]2)C1 (relative stereo)
IC50 (nM): 41

P = CC(C)NC(=O)O[C@H]1CC[C@@H](c2cc(Nc3ccc4c(c3)CN(c3ccc5c(c3)CNS5(=O)=O)S4(=O)=O)n[nH]2)C1 (relative stereo)
Q = CC(C)NC(=O)O[C@H]1CC[C@@H](c2cc(Nc3ccc4c(c3)C(C)NS4(=O)=O)n[nH]2)C1 (single isomer, unassigned) [Example 321d]
Input line: Which value of IC50 is greater, the one for P or the one for Q ? Please reply using the label of the selected record.
Output line: P
(P: 422 nM, Q: 5.4 nM)

----------
# MEASUREMENT_TARGET: CDK1/Cyclin B1 (Homo sapiens)
# ASSAY_OVERVIEW: CDK1/Cyclin B1 Biochemical Assay (TR-FRET), 0.015 mM ATP
# CONDITIONS_USED: 0.15 μM Rb (Ser780)-biotin substrate, pH7.0, 60 min preincubation, 120 min reaction, room temperature
ATTRIBUTE_MEASURED: IC50 (nM)

COMPOUND: O=C(NC1CCC(O)CC1)O[C@H]1CC[C@@H](c2cc(Nc3ccc4c(c3F)CNS4(=O)=O)n[nH]2)C1 (single isomer, unassigned) [Example 143]
UNIT_STRING: nM
IC50: 242

a = CC(C)NC(=O)O[C@H]1CC[C@@H](c2cc(Nc3ccc4c(c3)S(=O)(=O)NC4C)[nH]n2)C1 (single isomer, unassigned) [Example 5b]
b = CCCNC(=O)O[C@H]1CC[C@@H](c2cc(Nc3ccc4c(c3Cl)CNS4(=O)=O)n[nH]2)C1 (single isomer, unassigned) [Example 39a]
c = CC(C)NC(=O)O[C@H]1CC[C@@H](c2cc(Nc3ccc4c(c3F)C(C)NS4(=O)=O)n[nH]2)C1 (single isomer, unassigned) [Example 51c]
d = Cc1cc(Nc2cc([C@@H]3CC[C@H](OC(=O)NC(C)C)C3)[nH]n2)cc2c1NS(=O)(=O)C2 (relative stereo)
e = CC(NC(=O)O[C@H]1CC[C@@H](c2cc(Nc3ccc4c(c3)CS(=O)(=O)N4)n[nH]2)C1)C1COC1 (relative stereo)
Input line: Sort (5 compounds) by IC50: min first. Response format: the labels, sorted as the prompt asks.
Output line: a, e, d, c, b

I = CC(C)NC(=O)O[C@H]1CC[C@@H](c2cc(Nc3ccc4c(c3F)CS(=O)(=O)N4C)n[nH]2)C1 (single isomer, unassigned) [Example 255b]
II = O=C(NC12CC(C1)C2)O[C@H]1CC[C@@H](c2cc(Nc3ccc4c(c3F)CNS4(=O)=O)n[nH]2)C1 (relative stereo)
III = [2H]C([2H])([2H])N1c2c(F)cc(Nc3cc([C@@H]4CC[C@H](OC(=O)NCCC)C4)[nH]n3)cc2CS1(=O)=O (single isomer, unassigned) [Example 290a]
IV = CC(C)NC(=O)O[C@H]1CC[C@@H](c2cc(Nc3ccc4c(c3)N(CCO)S(=O)(=O)C4)n[nH]2)C1 (relative stereo)
V = Cc1nc2c(cc1Nc1cc([C@@H]3CC[C@H](OC(=O)NC(C)C)C3)[nH]n1)CNS2(=O)=O (relative stereo)
Input line: Sort (5 compounds) by IC50: min first. Response format: the labels, sorted as the prompt asks.
Output line: IV, II, I, III, V
(IV: 6.1 nM, II: 24 nM, I: 149 nM, III: 356 nM, V: 760 nM)

a = CN1c2ccc(Nc3cc([C@@H]4CC[C@H](OC(=O)NC5(C)CC5)C4)[nH]n3)cc2CS1(=O)=O (relative stereo)
b = CC(=O)N1CC(CN2Cc3c(ccc(Nc4cc([C@@H]5CC[C@H](OC(=O)NC(C)C)C5)[nH]n4)c3F)S2(=O)=O)C1 (relative stereo)
c = CC(C)NC(=O)O[C@H]1CC[C@@H](c2cc(Nc3ccc4c(c3)C(C)NS4(=O)=O)n[nH]2)C1 (single isomer, unassigned) [Example 321b]
d = CCCNC(=O)O[C@H]1CC[C@@H](c2cc(Nc3ccc4c(c3)CS(=O)(=O)N4)n[nH]2)C1 [Example 195b]
e = CC(C)NC(=O)O[C@H]1CC[C@@H](c2cc(Nc3cc(F)c4c(c3)CS(=O)(=O)N4CC(F)(F)F)n[nH]2)C1 (relative stereo)
Input line: Put the items in sequence by IC50, from largest down. Response format: the labels, sorted as the prompt asks.
Output line: b, e, d, a, c
(b: 532 nM, e: 131 nM, d: 67 nM, a: 35 nM, c: 15 nM)

a = CC(C)NC(=O)O[C@H]1CC[C@@H](c2cc(Nc3ccc4c(c3F)CS(=O)(=O)N4)n[nH]2)C1 (racemic) [Example 251]
b = CC(C)NC(=O)O[C@H]1CC[C@@H](c2cc(Nc3ccc4c(c3)C3(CC3)S(=O)(=O)N4)n[nH]2)C1 (relative stereo)
c = CC[C@H](C)NC(=O)O[C@@H]1CC[C@H](c2cc(Nc3ccc4c(c3F)CS(=O)(=O)N4)n[nH]2)C1 (single isomer, unassigned) [Example 383a]
Input line: Put the items in sequence by IC50, from largest down. Response format: the labels, sorted as the prompt asks.
Output line: b, c, a

----------
# MEASUREMENT_TARGET: CDK1/Cyclin B1 (Homo sapiens)
# ASSAY_OVERVIEW: CDK1/Cyclin B1 Biochemical Assay (TR-FRET), 0.015 mM ATP
# CONDITIONS_USED: 0.15 μM Rb (Ser780)-biotin substrate, pH7.0, 60 min preincubation, 120 min reaction, room temperature
pIC50: −log10 of the molar value.
ATTRIBUTE_MEASURED: pIC50

COMPOUND: CC(C)NC(=O)O[C@H]1CC[C@@H](c2cc(Nc3cc4c(cc3F)N(C3COC3)S(=O)(=O)C4)n[nH]2)C1 (relative stereo) [Example 301]
REPORTED: 6.39
--
COMPOUND: CC(C)NC(=O)O[C@H]1CC[C@@H](c2cc(Nc3ccc4c(c3F)CN(C3CCOC3)S4(=O)=O)n[nH]2)C1 (relative stereo) [Example 69]
REPORTED: 6.19
--
COMPOUND: CC(C)NC(=O)O[C@H]1CC[C@@H](c2cc(Nc3ccc4c(c3F)S(=O)(=O)N(C(C)C)C4)n[nH]2)C1 (relative stereo) [Example 193]
REPORTED: 6.44
--
COMPOUND: CCCNC(=O)O[C@H]1CC[C@@H](c2cc(Nc3ccc4c(c3F)CN(C3COC3)S4(=O)=O)n[nH]2)C1 (relative stereo) [Example 136]
REPORTED: 6.34

----------
# MEASUREMENT_TARGET: CDK1/Cyclin B1 (Homo sapiens)
# ASSAY_OVERVIEW: CDK1/Cyclin B1 Biochemical Assay (TR-FRET), 0.015 mM ATP
# CONDITIONS_USED: 0.15 μM Rb (Ser780)-biotin substrate, pH7.0, 60 min preincubation, 120 min reaction, room temperature
pIC50: −log10 of the molar value.
ATTRIBUTE_MEASURED: pIC50

1 = CC(C)NC(=O)O[C@H]1CC[C@@H](c2cc(Nc3ccc4c(c3F)CNS4(=O)=O)n[nH]2)C1 (single isomer, unassigned) [Example 9a]
2 = COCC(C)(C)NC(=O)O[C@H]1CC[C@@H](c2cc(Nc3ccc4c(c3F)CS(=O)(=O)N4C)n[nH]2)C1 (relative stereo) [Example 377]
3 = CC1NS(=O)(=O)c2ccc(Nc3cc([C@@H]4CC[C@H](OC(=O)NC5(C)CC5)C4)[nH]n3)c(F)c21 (single isomer, unassigned) [Example 52c]
4 = CN1c2ccc(Nc3cc([C@@H]4CC[C@H](OC(=O)NC5(C)CCC5)C4)[nH]n3)cc2CS1(=O)=O (relative stereo) [Example 233]
Input line: Rank the 4 compounds shown above by pIC50, smallest number first. Response format: the labels, sorted as the prompt asks.
Output line: 1, 3, 2, 4
(1: 6.43, 3: 6.81, 2: 7.35, 4: 8.00)

The reported measurements were obtained from patent US20260297080A1.
